- System: Vero E6 infected with SARS-CoV-2
- method.notes: inhibition of SARS-CoV-2 cytopathic effect; higher = more antiviral protection, active = above 15
- assay.context: 10000 nM; 48 h
endpoint: inhibition of SARS-CoV-2 cytopathic effect (%)

compound	measurement.target	units.text	reported.value
CC[C@H](NC(=O)c1c(O)c(-c2ccccc2)nc2ccccc12)c1ccccc1 [talnetant]	Vero E6 infected with SARS-CoV-2	%	2.11
O=C(CN1C2=NCCN2c2ccccc21)c1ccc(-c2ccccc2)cc1	Vero E6 infected with SARS-CoV-2	%	14.8
COc1ccc(CNC(=O)c2sc3nc(C)cc(C)c3c2N)cc1	Vero E6 infected with SARS-CoV-2	%	2.28
Cc1[nH]c(/C=C2\C(=O)Nc3ccccc32)c(C)c1CCC(=O)O [orantinib]	Vero E6 infected with SARS-CoV-2	%	-0.87
CCCCC1C(=O)N(c2ccccc2)N(c2ccccc2)C1=O [phenylbutazone]	Vero E6 infected with SARS-CoV-2	%	0.88
CC(=O)N[C@H]1[C@H]([C@H](O)[C@H](O)CO)OC(C(=O)O)=C[C@@H]1NC(=N)N [zanamivir]	Vero E6 infected with SARS-CoV-2	%	2.28
C[N+]1(CCCCC[N+]2(C)CCCC2)CCCC1 [pentolinium]	Vero E6 infected with SARS-CoV-2	%	0.64
C[C@H](Oc1ccc(S(C)(=O)=O)cc1C(=O)N1CCN(c2ncc(C(F)(F)F)cc2F)CC1)C(F)(F)F [bitopertin]	Vero E6 infected with SARS-CoV-2	%	-3.97
O=C(O)c1ccc2[nH]cc(CCCCN3CC=C(c4ccccc4)CC3)c2c1 [carmoxirole]	Vero E6 infected with SARS-CoV-2	%	0.69
CC(C)(C)[C@]1(O)CCN2C[C@H]3c4ccccc4CCc4cccc(c43)[C@@H]2C1 [butaclamol]	Vero E6 infected with SARS-CoV-2	%	-3.01
Cc1ncc([N+](=O)[O-])n1CC(C)O (stereo not drawn) [secnidazole]	Vero E6 infected with SARS-CoV-2	%	-9.47
Cc1ccc(NC(=O)c2ccc(CN3CC[C@H](N(C)C)C3)c(C(F)(F)F)c2)cc1Nc1nccc(-c2cncnc2)n1 [bafetinib]	Vero E6 infected with SARS-CoV-2	%	-4.8
COc1ccc2cc(C(C)C(=O)Oc3ccc(C(N)=S)cc3)ccc2c1 (stereo not drawn)	Vero E6 infected with SARS-CoV-2	%	4.55
CC(C)C(N)C(=O)O (stereo in doubt) [L-valine]	Vero E6 infected with SARS-CoV-2	%	1.66
CCCN(CCC)CCc1cccc2c1CC(=O)N2 [ropinirole]	Vero E6 infected with SARS-CoV-2	%	-0.98
CCO[C@@H]1OC(=O)C[C@@H]1NC(=O)[C@@H]1CCCN1C(=O)[C@@H](NC(=O)c1ccc(N)c(Cl)c1)C(C)(C)C	Vero E6 infected with SARS-CoV-2	%	-2.79
CC1(C)[C@@H](O)CC[C@]2(C)[C@H]3C(=O)C=C4[C@@H]5C[C@@](C)(C(=O)O)CC[C@]5(C)CC[C@@]4(C)[C@]3(C)CC[C@@H]12 [enoxolone]	Vero E6 infected with SARS-CoV-2	%	-0.55
Cc1c(C(=O)NN2CCCCC2)nn(-c2ccc(Cl)cc2Cl)c1-c1ccc(Cl)cc1 [rimonabant]	Vero E6 infected with SARS-CoV-2	%	-3.44

====

The following compounds are shown together with reported inhibition of SARS-CoV-2 cytopathic effect values.
- Tested on: Vero E6 infected with SARS-CoV-2
- method.notes: inhibition of SARS-CoV-2 cytopathic effect; higher = more antiviral protection, active = above 15
- assay.context: 8.33 nM; 48 h
endpoint: inhibition of SARS-CoV-2 cytopathic effect (%)

compound	units.text	reported.value
NCCCC(O)(P(=O)(O)O)P(=O)(O)O [alendronate]	%	-1.44
CCC(=O)OCN1C(=O)C=CC1=O	%	0.83
CCCN1CCCC(c2cccc(O)c2)C1 (stereo in doubt)	%	-0.3
CN1CCC(=C2c3ccccc3Sc3ccccc32)CC1	%	0.84
C[C@H](CCC(=O)NCCS(=O)(=O)O)[C@H]1CC[C@H]2[C@@H]3[C@@H](O)C[C@@H]4C[C@H](O)CC[C@]4(C)[C@H]3CC[C@]12C	%	3.52

// provenance: the supplement of paper PMC13380429
